experiment_description: Cytotoxicity against mouse NIH/3T3 cells assessed as cell growth at 5 uM measured at 72 hrs by CyQuant proliferation assay relative to control
Assay type: cell-based, NIH3T3
recorded_conditions: read-out: Activity
As shown below, each of these compounds has a reported viability at 72 h, 5 µM value.
Field note: include the unit after the figure.

Here is how some compounds turned out for viability at 72 h, 5 µM.
chemical_smiles: COC1=C(Br)[C@@H](O)[C@]2(C=C1Br)CC(C(=O)NCCCOc1c(Br)cc(CCNC(=O)CCCCCCCCCCCC(C)C)cc1Br)=NO2
viability at 72 h, 5 µM: 88%
//
chemical_smiles: COC1=C(Br)[C@@H](O)[C@]2(C=C1Br)CC(C(=O)NCCCOc1c(Br)cc(C(=O)O)cc1Br)=NO2
viability at 72 h, 5 µM: 94%
//
chemical_smiles: COc1c(Br)cc(C/C(=N\O)C(=O)NCCc2cc(Br)c(OCCCN)c(Br)c2)cc1Br
viability at 72 h, 5 µM: 105%

Kindly review the next compound as well.
Please look up its viability at 72 h, 5 µM: "COC1=C(Br)[C@@H](O)[C@]2(C=C1Br)CC(C(=O)NCCCOc1c(Br)cc(CCN)cc1Br)=NO2" 38%

###

experiment_description: Cytotoxicity against human A2780S/CP5 cells by CyQuant proliferation assay
Format: functional, cell-based
property_name: IC50 (µM)
Answer format: numeric, µM implied, no suffix.

Please look up its IC50: "COc1c(Br)cc(C/C(=N\O)C(=O)NCCCOc2c(Br)cc(CCN)cc2Br)c(O)c1Br" 40

###

experiment_description: Cytotoxicity against human A2780S cells assessed as cell growth at 50 uM measured at 72 hrs by CyQuant proliferation assay relative to control
Format: functional
recorded_conditions: A2780, 72 h, read-out: Activity
property_name: growth at 50 µM (%)
Answer format: numeric, % implied, no suffix.

Here is how some compounds turned out for growth at 50 µM.
compound: COC1=C(Br)[C@@H](O)[C@]2(C=C1Br)CC(C(=O)NCCCOc1c(Br)cc(C(=O)O)cc1Br)=NO2
growth at 50 µM / %: 21

compound: CNCCCOc1c(Br)cc(CCNC(=O)/C(Cc2cc(Br)c(OC)c(Br)c2)=N/O)cc1Br
growth at 50 µM / %: 13

Please look up its growth at 50 µM: CCCCCCC(C)CCCCCCCCC(=O)NCCc1cc(Br)c(OCCCNC(=O)C2=NO[C@@]3(C=C(Br)C(OC)=C(Br)[C@H]3O)C2)c(Br)c1 (stereo partly specified) 88

Please look up its growth at 50 µM: "COc1c(Br)cc(C/C(=N\O)C(=O)NCCc2cc(Br)c(OCCCN)c(Br)c2)cc1Br" 11

Please look up its growth at 50 µM: "COC1=C(Br)[C@@H](O)[C@]2(C=C1Br)CC(C(=O)NCCCOc1c(Br)cc(CCNC(=N)N)cc1Br)=NO2" 12

Please look up its growth at 50 µM: "COc1c(Br)cc(C/C(=N\O)C(=O)NCCCOc2c(Br)cc(CCN)cc2Br)c(O)c1Br" 9

Please look up its growth at 50 µM: "CNCCCOc1c(Br)cc(CCNC(=O)/C(Cc2ccc(O)c(Br)c2)=N/O)cc1Br" 26

Please look up its growth at 50 µM: "COC1=C(Br)[C@@H](O)[C@]2(C=C1Br)CC(C(=O)NCCCOc1c(Br)cc(CCNC(=O)CCCCCCCCCCCC(C)C)cc1Br)=NO2" 18

Please look up its growth at 50 µM: CCCCCCC(C)CCCCCCCC(=O)NCCc1cc(Br)c(OCCCNC(=O)C2=NO[C@@]3(C=C(Br)C(OC)=C(Br)[C@H]3O)C2)c(Br)c1 (stereo partly specified) 87

Please look up its growth at 50 µM: "COC1=C(Br)[C@@H](O)[C@]2(C=C1Br)CC(C(=O)NCCCOc1c(Br)cc(CCN)cc1Br)=NO2" 14

Please look up its growth at 50 µM: CCCCC(C)CCC/C=C\CCCCCCC(=O)NCCc1cc(Br)c(OCCCNC(=O)C2=NO[C@@]3(C=C(Br)C(OC)=C(Br)[C@H]3O)C2)c(Br)c1 (stereo partly specified) 76
